B1: FUT8 (parent)
chain: NWRYATGGWETVFRPVSETCTDRS

Variants of: B1
Assay: protein stability index of a GFP-peptide fusion (GPS, HEK-293T) (PSI 1-6); higher = more stable;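 note: lentivirally expressed fusions sorted by FACS into six bins by GFP to DsRed ratio, PSI derived from sequencing read proportions per bin multiplied by bin number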
Settings: c terminus: a fixed tail appended
Where protein stability index equals or exceeds 2, the correct label is true (1); where it does not, the label is false (0).

Challenge: Can `V12P` be said to have protein stability index at or above 2?
Response given: true (1)

Challenge: Reported protein stability index reaches at least 2 for `N1E` ?
Response given: true (1)

Challenge: Confirm if protein stability index reported for the variant `A5N` is 2 or above.
Response given: true (1)

Challenge: Is protein stability index at least 2? Consider `E10P`
Response given: false (0)

Challenge: # bool: protein stability index of `S17G` >= 2
Response given: true (1)

Challenge: Reported protein stability index at or above 2? `T6K`
Response given: false (0)

Challenge: Does `A5R` have a reported protein stability index of at least 2?
Response given: true (1)

Challenge: Given the entry `T6Q` , answer whether its protein stability index meets or surpasses 2.
Response given: false (0)

Challenge: Has `T19F` a recorded protein stability index greater than or equal to 2?
Response given: false (0)

Challenge: Could you please find out whether `N1A` has protein stability index that meets 2 or exceeds it?
Response given: false (0)

Challenge: Please check the record `V16K` and state if its protein stability index is at or above 2.
Response given: true (1)

Challenge: # bool: protein stability index of `E18W` >= 2
Response given: true (1)

Challenge: Exam item: decide whether the reported protein stability index for `G8Y` is at least 2.
Response given: false (0)

Challenge: Given `S17F` , state whether its protein stability index is at least 2.
Response given: true (1)

Challenge: Does `R3N` have a reported protein stability index of at least 2?
Response given: true (1)

Challenge: Decide: protein stability index of `T6I` >= 2?
Response given: true (1)

Challenge: Reported protein stability index at or above 2? `E18Y`
Response given: true (1)

Challenge: Given the entry `C20Q` , answer whether its protein stability index meets or surpasses 2.
Response given: false (0)

Challenge: Hi, just wondering whether `D22N` shows protein stability index of 2 or higher.
Response given: false (0)

Challenge: Kindly determine if protein stability index recorded for `C20L` is above or exactly 2.
Response given: false (0)

Challenge: Please indicate if the recorded protein stability index for `Y4F` meets or exceeds 2.
Response given: true (1)

Challenge: Quick check: does `D22W` have protein stability index greater than or equal to 2?
Response given: false (0)

Challenge: Please check the record `W9Y` and state if its protein stability index is at or above 2.
Response given: true (1)

Challenge: Record `E10F` ; criterion: protein stability index no lower than 2. Met?
Response given: true (1)

Challenge: Is protein stability index at least 2? Consider `W2D`
Response given: true (1)

Challenge: Please tell me: is the variant `G8P` at or over 2 in terms of protein stability index?
Response given: false (0)

Challenge: Can `F13W` be said to have protein stability index at or above 2?
Response given: true (1)

Challenge: Hello, I need to know if `S17Y` has measured protein stability index not below 2. Thanks!
Response given: false (0)

Challenge: Test whether the variant `W2M` records protein stability index of 2 or higher.
Response given: true (1)

Challenge: Decide: protein stability index of `E10N` >= 2?
Response given: false (0)

Challenge: Could you tell me if the measured protein stability index of `F13E` reaches 2 or more?
Response given: true (1)

Challenge: Answer whether protein stability index of `T21F` is greater than or equal to 2.
Response given: true (1)

Challenge: Is reported protein stability index greater than or equal to 2 here: `C20W`
Response given: true (1)

Challenge: Decide: protein stability index of `E10M` >= 2?
Response given: false (0)

Challenge: Answer whether protein stability index of `C20A` is greater than or equal to 2.
Response given: true (1)

Challenge: Check the entry `Y4V` : does protein stability index equal or exceed 2?
Response given: true (1)

Challenge: Entry `T6L` : is its protein stability index no less than 2?
Response given: false (0)

Challenge: Say whether `V16L` shows protein stability index of 2 or more.
Response given: false (0)

Challenge: Does the variant `N1R` have recorded protein stability index that is 2 or more?
Response given: true (1)

Challenge: Quick check, protein stability index >= 2? `E10S`
Response given: false (0)

Challenge: Is protein stability index at least 2? Consider `T19M`
Response given: false (0)

Challenge: Can `F13K` be said to have protein stability index at or above 2?
Response given: true (1)

Challenge: Check if protein stability index >= 2 (inclusive). Item: `E18N`
Response given: false (0)

Challenge: State whether the measured protein stability index reaches 2, counting equality as reaching it, for `G8R`
Response given: false (0)

Challenge: Kindly determine if protein stability index recorded for `C20F` is above or exactly 2.
Response given: false (0)

Challenge: Does `S24F` have a reported protein stability index of at least 2?
Response given: false (0)

Challenge: Check the entry `D22H` : does protein stability index equal or exceed 2?
Response given: false (0)

Challenge: Check the entry `A5D` : does protein stability index equal or exceed 2?
Response given: true (1)

Challenge: Is protein stability index at least 2? Consider `W9V`
Response given: true (1)

Challenge: Given the entry `T6W` , answer whether its protein stability index meets or surpasses 2.
Response given: false (0)

Challenge: Decide: is the reported value of protein stability index for `R3D` equal to or greater than 2?
Response given: true (1)

Challenge: Does the reported protein stability index for `S17M` fall at or above the 2 mark?
Response given: false (0)

Challenge: Evaluate `C20Y` : protein stability index at minimum 2?
Response given: true (1)

Challenge: Given the entry `S17H` , answer whether its protein stability index meets or surpasses 2.
Response given: false (0)

Challenge: Could you tell me if the measured protein stability index of `E10Q` reaches 2 or more?
Response given: false (0)

Challenge: Does `N1Y` have a reported protein stability index of at least 2?
Response given: true (1)

Challenge: Hello, I need to know if `E10K` has measured protein stability index not below 2. Thanks!
Response given: true (1)

Challenge: Decide: protein stability index of `V12T` >= 2?
Response given: false (0)

Challenge: Entry `V16Q` : is its protein stability index no less than 2?
Response given: true (1)

Challenge: Kindly determine if protein stability index recorded for `C20H` is above or exactly 2.
Response given: true (1)

Challenge: Has `T11V` a recorded protein stability index greater than or equal to 2?
Response given: true (1)

Challenge: Please check the record `R14Q` and state if its protein stability index is at or above 2.
Response given: false (0)

Challenge: Does protein stability index meet or surpass 2 for `E18D` ?
Response given: true (1)

Challenge: Does the reported protein stability index for `R3L` fall at or above the 2 mark?
Response given: true (1)

Challenge: Has `V16M` a recorded protein stability index greater than or equal to 2?
Response given: true (1)

Challenge: Decide: is the reported value of protein stability index for `G7M` equal to or greater than 2?
Response given: false (0)
